As shown below, each of these compounds has a reported IC50 value.
Target: SMYD2 (Homo sapiens (Human), UniProt Q9NRG4)
Sequence (Q9NRG4 whole entry): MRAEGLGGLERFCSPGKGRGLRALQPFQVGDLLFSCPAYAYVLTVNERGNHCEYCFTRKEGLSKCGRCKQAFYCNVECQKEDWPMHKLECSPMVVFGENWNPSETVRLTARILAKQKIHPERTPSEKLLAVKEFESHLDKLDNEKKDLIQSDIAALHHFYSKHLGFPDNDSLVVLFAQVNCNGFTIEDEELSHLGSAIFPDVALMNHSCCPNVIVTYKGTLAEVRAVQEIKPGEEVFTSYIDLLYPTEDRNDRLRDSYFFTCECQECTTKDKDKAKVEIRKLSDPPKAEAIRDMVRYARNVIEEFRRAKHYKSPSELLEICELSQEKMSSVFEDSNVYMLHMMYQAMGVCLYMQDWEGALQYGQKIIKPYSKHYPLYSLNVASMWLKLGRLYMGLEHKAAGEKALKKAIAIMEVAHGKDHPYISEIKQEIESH
Experiment: SMYD2 biochemical assay (SMYD2 enzyme assay on peptide substrate, 3H-SAM Flashplate)
Conditions: read-out: SMYD2 Biochem IC50; IC50 values are an average of n = 1 to n = 50

Recorded IC50, per entry:
>>> result("CC(c1ccc(C(F)(F)F)cc1)N1CC(NC(=O)c2cn(C3CC3)nn2)C1 (stereo not shown) [compound 680]")
"> 50000 nM"
>>> result("O=C(NC1CN(Cc2cnn(Cc3ccc(Cl)cc3)c2)C1)c1cc(C2CC2)ccn1 [compound 930]")
"3.3 nM"

Tested system SMYD2 (Homo sapiens (Human), UniProt Q9NRG4); IC50 recorded for CC(c1ccc(OCCCN(C)C)cc1)N1CC(NC(=O)c2cn(C3CC3)nn2)C1 (stereo not shown) [compound 858] was 4790 nM

Record for O=C(NC1CN(Cc2ccc(O)cc2)C1)c1cn(C2CC2)nn1 [compound 824] under target or system SMYD2 (Homo sapiens (Human), UniProt Q9NRG4): IC50 reported as 882 nM

---

Molecular target: UniProtKB Q9NRG4
Assay: SMYD2 biochemical assay (SMYD2 enzyme assay on peptide substrate, 3H-SAM Flashplate)
Settings: read-out: SMYD2 Biochem IC50; IC50 values are an average of n = 1 to n = 50
ENDPOINT: IC50 (nM)
Express the result in nM but write the number alone.

Study these solved cases before continuing.
>>> measured_number("O=C(NC1CN(Cc2cnn(Cc3ccc(Cl)cc3)c2)C1)c1nc(C2CC2)c[nH]1 [compound 927]")
11
>>> measured_number("CC(c1ccc2nn(C)cc2c1)N1CC(NC(=O)c2cn(C3CC3)nn2)C1 (stereo not drawn) [compound 935]")
1600
>>> measured_number("O=C(NC1CN(Cc2ccc(OCc3cccnc3)cc2)C1)c1cn(C2CC2)nn1 [compound 972]")
1300

Case COc1ccc(C(C)N2CC(NC(=O)c3cn(C4CC4)nn3)C2)cc1 (stereo not drawn) [compound 821] , UniProtKB Q9NRG4, IC50 recorded as 785

Field IC50 (system: UniProtKB Q9NRG4) for entry O=C(NC1CN(C(c2ccccc2)C2CCC2)C1)c1cn(C2CC2)nn1 (stereo not drawn) [compound 731] = 1520

IC50 on UniProtKB Q9NRG4 for COc1ccccc1[C@H](C)N1CC(NC(=O)c2cc(C3CC3)cnn2)C1 [compound 841] is 5010

---

Target: SMYD2 (Homo sapiens (Human), UniProt Q9NRG4)
Assay: SMYD2 biochemical assay (SMYD2 enzyme assay on peptide substrate, 3H-SAM Flashplate)
Conditions: read-out: SMYD2 Biochem IC50; IC50 values are an average of n = 1 to n = 50
The compounds listed here are annotated with their IC50.
The response must be a number in nM with no trailing unit.

Sample records with IC50:
>>> measured_number("O=C(NC1CN(Cc2cnn(Cc3ccccc3)c2)C1)c1nnc(C2CC2)s1 [compound 1007]")
72
>>> measured_number("O=C(NC1CN(Cc2cnn(CC3CC3)c2)C1)c1cn(C2CC2)nn1 [compound 1006]")
1700
>>> measured_number("CC(C)C(c1ccccc1)N1CC(NC(=O)c2cn(C3CC3)nn2)C1 (centres unmarked) [compound 787]")
1430
>>> measured_number("Cc1ccc(COc2ccc(C(C)N3CC(NC(=O)c4cn(C5CC5)nn4)C3)cc2)cc1 (centres unmarked) [compound 971]")
88
>>> measured_number("COc1ccccc1Cn1cc(CN2CC(NC(=O)c3cn(C4CC4)nn3)C2)cn1 [compound 995]")
1300

CNCCOc1cccc(C(C)N2CC(NC(=O)c3cn(C4CC4)nn3)C2)c1 (centres unmarked) [compound 705] yielded IC50 of 2040

Value of IC50 reported for the compound O=C(NC1CN(CC2COC2)C1)c1cn(C2CC2)nn1 [compound 666] is 6060

Entry COCCOc1cccc(C(C)N2CC(NC(=O)c3cn(C4CC4)nn3)C2)c1 (centres unmarked) [compound 702] ; IC50 = 3580

IC50 recorded for this compound, COc1ccc2c(c1)CCCC2N1CC(NC(=O)c2cn(C3CC3)nn2)C1 (centres unmarked) [compound 793] , is 9920

Reported IC50 ( CC(C)N1CC(NC(=O)c2cn(C3CC3)nn2)C1 [compound 662] ) = 846

The compound identified as COc1cccc(C(C)N2CC(NC(=O)c3cc(C4CC4)cnn3)C2)c1Cl (centres unmarked) [compound 851] registered its IC50 at 72.1

---

Target: SMYD3 (Homo sapiens (Human))
Sequence (Q9H7B4 whole entry): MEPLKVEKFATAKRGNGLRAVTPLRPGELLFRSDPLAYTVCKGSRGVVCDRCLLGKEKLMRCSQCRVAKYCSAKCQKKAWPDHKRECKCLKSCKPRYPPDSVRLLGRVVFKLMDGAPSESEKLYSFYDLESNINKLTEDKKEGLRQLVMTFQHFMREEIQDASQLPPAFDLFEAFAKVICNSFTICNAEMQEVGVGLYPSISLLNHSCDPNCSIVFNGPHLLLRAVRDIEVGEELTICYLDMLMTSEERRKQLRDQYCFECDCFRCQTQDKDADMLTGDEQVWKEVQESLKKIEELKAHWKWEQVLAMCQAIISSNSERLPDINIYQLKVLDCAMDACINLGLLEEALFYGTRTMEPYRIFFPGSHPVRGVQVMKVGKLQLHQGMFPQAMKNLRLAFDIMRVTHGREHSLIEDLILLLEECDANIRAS
Assay: SMYD3 biochemical assay (SMYD3 enzyme assay on MEKK2 protein substrate, 3H-SAM scintillation proximity assay)
Conditions: read-out: SMYD3 Biochem IC50
ENDPOINT: IC50

Reference set (5 entries):
>>> result("Cc1cc2cc(C(=O)N[C@H]3CC[C@H](N)CC3)ccc2[nH]1 [compound 520]")
"> 50 µM"
>>> result("NCCC(=O)N[C@H]1CC[C@H](NC(=O)c2ccc(O)nc2)CC1 [compound 294]")
"> 100 µM"
>>> result("CC(NC(=O)c1cc2cccc(O)c2cc1O)C1CCN(C(=O)[C@H](C)N)CC1 (stereo partly drawn) [compound 441]")
"37.5 µM"
>>> result("CC(NC(=O)c1cc2ccccc2[nH]1)C1CCN(C(=O)[C@H](C)N)CC1 (stereo partly drawn) [compound 232]")
"> 100 µM"
>>> result("NCCC(=O)N[C@H]1CC[C@H](NC(=O)c2cn3ccsc3n2)CC1 [compound 317]")
"> 100 µM"

Item: N[C@H]1CC[C@H](NC(=O)Cc2cc(F)cc(F)c2)CC1 [compound 362] | System: SMYD3 (Homo sapiens (Human)) | IC50: > 100 µM

Measured IC50 (SMYD3 (Homo sapiens (Human))), entry CC(NC(=O)c1ccc2nonc2c1)C1CCN(C(=O)[C@H](C)N)CC1 (stereo partly drawn) [compound 237] : > 100 µM

Measured IC50 for this entry Cn1ncc2ccc(C(=O)N[C@H]3CC[C@H](N)CC3)cc21 [compound 275] on SMYD3 (Homo sapiens (Human)): > 100 µM

NCCC(=O)N[C@H]1CC[C@H](NC(=O)c2n[nH]c3ccccc23)CC1 [compound 425] on SMYD3 (Homo sapiens (Human)) gives IC50 = 37.5 µM

---

Target: SMYD3 (Homo sapiens (Human))
Assay: SMYD3 biochemical assay (SMYD3 enzyme assay on MEKK2 protein substrate, 3H-SAM scintillation proximity assay)
Details: read-out: SMYD3 Biochem IC50
pIC50: −log10 of the molar value.
Known pIC50 of a selection of compounds

// solved cases for pIC50 follow
>>> result("NCCC(=O)N[C@H]1CC[C@H](NC(=O)c2cc3c(cc2Cl)NC(=O)C3)CC1")
6.82
>>> result("Cc1nscc1C(=O)N[C@H]1CC[C@H](N)CC1")
"< 4.00"
>>> result("N[C@H]1CC[C@H](NC(=O)[C@H]2CCc3ccccc3N2)CC1")
4.90
>>> result("COc1cc(C(=O)N[C@H]2CC[C@H](NC(=O)CCN)CC2)c2ccccc2n1")
"< 4.00"
>>> result("N[C@H]1CC[C@H](NC(=O)c2cc3cc(Cl)ccc3[nH]2)CC1")
4.04

# pIC50 measured on SMYD3 (Homo sapiens (Human)) for item NCCC(=O)N[C@H]1CC[C@H](NC(=O)c2cc[n+]([O-])cc2)CC1 = < 4.00

SMYD3 (Homo sapiens (Human)) pIC50 of Cc1c(C(=O)N[C@H]2CC[C@H](N)CC2)nnn1-c1ccccc1 is < 4.00

The compound Cc1cnc(C(=O)N[C@H]2CC[C@H](NC(=O)CCN)CC2)s1 , tested on SMYD3 (Homo sapiens (Human)), showed pIC50 of 4.56

The observed pIC50 for NCCC(=O)N[C@H]1CC[C@H](NC(=O)c2ccc3c(c2)CCCC3)CC1 when tested with SMYD3 (Homo sapiens (Human)) stands at 4.95

Measured on SMYD3 (Homo sapiens (Human)), NCCC(=O)N[C@H]1CC[C@H](NC(=O)[C@H]2CC[C@H](N)CC2)CC1 has a documented pIC50 of < 4.00

The compound NC1CCC(NC(=O)[C@H]2Cc3ccccc3CN2)CC1 (stereo partly drawn) , when measured on SMYD3 (Homo sapiens (Human)), yielded pIC50 of < 4.00

The compound N[C@H]1CC[C@H](NC(=O)c2ccc3c(c2)OC(F)(F)O3)CC1 on SMYD3 (Homo sapiens (Human)): pIC50 was 4.16

Observed pIC50, SMYD3 (Homo sapiens (Human)), NCCC(=O)N[C@H]1CC[C@H](NC(=O)c2cc(O)c3ccccc3n2)CC1 : < 4.00

// compound Cc1c(C(=O)N[C@H]2CC[C@H](NC(=O)CCN)CC2)nnn1-c1ccccc1 , assay SMYD3 (Homo sapiens (Human)), pIC50 value: < 4.00

Tested on SMYD3 (Homo sapiens (Human)): Nc1cc(C(=O)N[C@H]2CC[C@H](N)CC2)ccn1 . Observed pIC50: < 4.00

Log: SMYD3 (Homo sapiens (Human)), compound CC(NC(=O)[C@H]1C[C@H](O)CN1)C1CCN(C(=O)[C@H](C)N)CC1 (stereo partly drawn) , pIC50 = 4.34

Measured on SMYD3 (Homo sapiens (Human)), NCCC(=O)N[C@H]1CC[C@H](NC(=O)c2ccc(-n3cnnc3)cc2)CC1 has a documented pIC50 of < 4.00

# NCCC(=O)N[C@H]1CC[C@H](NC(=O)c2cncc(O)c2)CC1 with SMYD3 (Homo sapiens (Human)): pIC50 is < 4.30
